# measuredTarget: Tyrosine-protein kinase Lyn (Homo sapiens)
# assayConditions: at 1 µM
recordedMetric: residual activity (%)
Report the value in % with no unit label.

These recorded examples may help you get a feel for the data.
[
  {
    "molecule": "NCCNc1ncc(C(N)=O)c(Nc2cccc(C(F)(F)F)c2)n1",
    "residual activity (%)": 27
  },
  {
    "molecule": "O=C(NC(NC(=S)Nc1ccc(F)c([N+](=O)[O-])c1)C(Cl)(Cl)Cl)C(c1ccccc1)c1ccccc1 (stereo not given)",
    "residual activity (%)": 89
  },
  {
    "molecule": "COc1ccc(Cl)cc1NC(=O)Nc1cc(C)nc2ccccc12",
    "residual activity (%)": 89
  },
  {
    "molecule": "N#Cc1c(NC(=O)c2cccc3ccccc23)sc2c1CCCC2",
    "residual activity (%)": 90
  },
  {
    "molecule": "CN([C@@H](Cc1ccc(OS(=O)(=O)c2cccc3cnccc23)cc1)C(=O)N1CCN(c2ccccc2)CC1)S(=O)(=O)c1cccc2cnccc12",
    "residual activity (%)": 78
  }
]

residual activity lookup needed for O=C1Cc2c([nH]c3ccc(Br)cc23)-c2ccccc2N1 , thanks.
10

residual activity lookup needed for Nc1nccc(-c2c(-c3ccc(F)cc3)ncn2C2CCNCC2)n1 , thanks.
50

residual activity lookup needed for COc1cc2nccc(Oc3ccc(NC(=O)Nc4cc(C)on4)c(Cl)c3)c2cc1OC , thanks.
-1

residual activity lookup needed for Nc1n[nH]c2nc3ccccc3nc12 , thanks.
75

residual activity lookup needed for CC(C)[C@H](CO)Nc1nc(Nc2cc(N)cc(Cl)c2)c2ncn(C(C)C)c2n1 , thanks.
9
